System: P12-Ichikawa
Protocol details: AUC of viability dose-response curve (% viability x log10 dose units); higher = less sensitive
Details: HPLM + 10% dialyzed FBS; 48 h
Metric: AUC of viability dose-response curve
Hey, just send me the number, nothing else.

// solved cases for AUC of viability dose-response curve follow
Just so you know, measured AUC of viability dose-response curve for CN1CC(=O)\N=C1\NC(=O)NC2=CC(=CC=C2)Cl came out at 442

Just so you know, measured AUC of viability dose-response curve for C[C@@H]1C[C@H]2[C@@H]3CC\C4=C\C(=O)\C=C/[C@]4(C)[C@@]3(Cl)[C@@H](O)C[C@]2(C)[C@@]1(OC(=O)C5=CC=CO5)C(=O)CCl came out at 313

Just so you know, measured AUC of viability dose-response curve for CC1COC2=C3N1\C=C(C(O)=O)/C(=O)C3=CC(=C2N4CCN(C)CC4)F (stereo not drawn) came out at 463

New cases:
Just so you know, measured AUC of viability dose-response curve for NC(=O)Nc1cc(-c2ccc(CN3CCOCC3)cc2)sc1C(N)=O came out at 236

Just so you know, measured AUC of viability dose-response curve for COc1cc(N[S+](=O)([O-])c2ccc(N)cc2)nc(OC)n1 came out at 462

Just so you know, measured AUC of viability dose-response curve for CC(C)(C)c1cc(C(=O)O)c(NC(=O)Nc2ccc3[nH]ncc3c2)s1 came out at 433

Just so you know, measured AUC of viability dose-response curve for O=C1NC(O)CCN1[C@@H]1O[C@H](CO)[C@@H](O)[C@H]1O (stereo partly drawn) came out at 456

Just so you know, measured AUC of viability dose-response curve for CCCCCCCCc1ccc(CCC(N)(CO)CO)cc1 came out at 432

---

System: NOMO1
Protocol details: cell viability relative to DMSO control; higher = less cytotoxic
Details: RPMI 5 mM glucose + 10% dialyzed FBS; 48 h; 0.000781 µM
Metric: cell viability (%)
Numbers only here, please. The scale is %.

Just so you know, measured cell viability for Cc1cc(Cl)ccc1OCCCC(=O)NO came out at 105

Just so you know, measured cell viability for C#C[C@]1(O)CC[C@H]2[C@@H]3CCc4cc(OC)ccc4[C@H]3CC[C@@]21C came out at 115

Then this compound:
Just so you know, measured cell viability for O=C1CCc2ccc(OCCCCN3CCN(c4cccc(Cl)c4Cl)CC3)cc2N1 came out at 106

---

Below is a list of entries, each paired with its recorded cell viability value.
Test system: SEM cells
Protocol details: cell viability relative to DMSO control; higher = less cytotoxic
Details: HPLM + 10% dialyzed FBS; 48 h; 0.000781 µM
Numbers only here, please. The scale is %.

// solved cases for cell viability follow
Just so you know, measured cell viability for COc1cc(N[S+](=O)([O-])c2ccc(N)cc2)nc(OC)n1 came out at 71.9

Just so you know, measured cell viability for COC[C@H]1OC(=O)C2=COC3=C2[C@@]1(C)\C4=C(\[C@@H]5CC[C@H](O)[C@@]5(C)C[C@H]4OC(C)=O)C3=O came out at 95.1

Just so you know, measured cell viability for O=C1CCc2ccc(OCCCCN3CCN(c4cccc(Cl)c4Cl)CC3)cc2N1 came out at 111

Just so you know, measured cell viability for CNCC(O)C(O)C(O)C(O)CO.O=C(O)c1ccc(-c2cc3cccnc3c(-c3ccc4nonc4c3)n2)cc1 came out at 104

Just so you know, measured cell viability for CCN(C)C(=O)Oc1cccc([C@H](C)N(C)C)c1 came out at 101

New cases:
Just so you know, measured cell viability for Nc1nc(OCc2ccccc2)c2nc[nH]c2n1 came out at 99.9

Just so you know, measured cell viability for O=C1NC(=O)/C(=C/c2cccc(C(F)(F)F)c2)S1 came out at 100

Just so you know, measured cell viability for COc1cc(OC)c(NC(=O)Nc2cc(C)on2)cc1Cl came out at 95.9

Just so you know, measured cell viability for OC(COC1=C2C(=O)\C=C(/OC2=CC=C1)C([O-])=O)COC3=C4C(=O)\C=C(/OC4=CC=C3)C([O-])=O came out at 65.3
